# Assay Explanation: Pharmacokinetics after 24-hour subcutaneous infusion via fluid delivery device in male Beagle dogs (plasma, LC-MS/MS)
# Conditions Used: male, Beagle, dog, in vivo, sc, 5.45 mg/kg, AUClast, Group 2, SC infusion, dose 5.45 mg/kg, mean
Endpoint Name: AUC(0-t) (ng·h/mL)

INSERT INTO results (compound, endpoint_name, endpoint_value) VALUES
  ('C=C(C)[C@@H]1CCC(C)=C[C@H]1c1c(O)cc(CCCCC)cc1O', 'AUC(0-t)', 303);

----------
# Assay Explanation: Pharmacokinetics after 24-hour subcutaneous infusion via fluid delivery device in male Beagle dogs (plasma, LC-MS/MS)
# Conditions Used: male, Beagle, dog, in vivo, sc, 40 mg/animal, Plasma concentration of CBD, Group 1, SC infusion 40 mg/animal, 30 hr, mean (BLOQ samples excluded)
Endpoint Name: concentration at 30 h (ng/mL)

INSERT INTO measurements (compound, endpoint_value) VALUES
  ('C=C(C)[C@@H]1CCC(C)=C[C@H]1c1c(O)cc(CCCCC)cc1O', 11.4);
